Target: P2X7 receptor (Rattus norvegicus)
Construct: rP2X7 (IC50; nM); other: rP2X7; HEK-293 cells stably transfected with P2X7 receptor, Bz-ATP at EC80, Fluo-8 NW; potency
Sequence (Q64663 whole entry): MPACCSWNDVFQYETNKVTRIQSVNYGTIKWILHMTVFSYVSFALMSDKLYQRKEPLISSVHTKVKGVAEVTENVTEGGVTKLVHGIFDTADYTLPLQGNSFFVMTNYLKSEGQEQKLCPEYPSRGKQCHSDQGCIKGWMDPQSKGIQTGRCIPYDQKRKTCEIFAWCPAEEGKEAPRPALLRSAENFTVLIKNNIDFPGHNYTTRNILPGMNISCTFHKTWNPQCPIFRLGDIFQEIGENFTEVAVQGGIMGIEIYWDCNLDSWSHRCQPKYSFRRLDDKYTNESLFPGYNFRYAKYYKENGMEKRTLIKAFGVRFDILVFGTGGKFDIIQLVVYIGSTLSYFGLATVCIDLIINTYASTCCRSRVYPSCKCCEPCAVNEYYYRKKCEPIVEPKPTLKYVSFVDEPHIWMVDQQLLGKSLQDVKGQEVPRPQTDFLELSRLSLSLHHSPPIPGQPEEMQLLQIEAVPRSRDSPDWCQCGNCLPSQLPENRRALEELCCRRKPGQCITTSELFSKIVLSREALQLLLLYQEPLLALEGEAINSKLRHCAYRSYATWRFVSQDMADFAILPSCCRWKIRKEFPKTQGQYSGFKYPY
Assay: Screen Quest Fluo-8 No Wash Calcium Assay (Bz-ATP evoked Ca2+ influx, FLIPR)
Assay type: cell-based
Conditions: rP2X7; HEK-293 cells stably transfected with P2X7 receptor, Bz-ATP at EC80, Fluo-8 NW; potency ranges A-D
Method: Extracellular binding of Bz-ATP to P2X7 receptor opens the channel and allows Ca2+ influx into the cells. […] Its fluorescence increases upon binding to calcium. HEK-293 cells stably transfected with P2X7 receptor were seeded overnight in growth medium at 10,000 to 20,000 cell/well in 384-well plate. […] Then 10 μL/w of tests compounds and reference antagonist A438079 at 3×-concentration were injected with the […] and the kinetic response over a period of five minutes was monitored. […]
This section presents compounds with their documented IC50 values.
RECORDED_ENDPOINT: IC50

>>> result("O=c1onc(Cc2c(F)cccc2Cl)n1CCCN1CCCCC1")
"> 10000 nM"
>>> result("O=c1onc(Cc2c(F)cccc2Cl)n1CC1CCC(F)CC1 (stereo not shown)")
"< 200 nM"
>>> result("O=c1onc(Cc2c(F)cccc2Cl)n1CC1(F)CCCCC1")
"200 to 1000 nM"
>>> result("CCn1c(Cc2c(F)cccc2Cl)noc1=O")
"> 10000 nM"
>>> result("CC1CC(F)(F)CCN1Cc1noc(=O)n1Cc1c(F)cccc1Cl (stereo not shown)")
"< 200 nM"
>>> result("O=c1onc(Cc2c(F)cccc2Cl)n1Cc1nccs1")
"> 10000 nM"
>>> result("O=c1onc(Cc2c(F)cccc2Cl)n1Cc1ccccc1F")
"1000 to 10000 nM"
>>> result("Cc1noc(C)c1Cn1c(Cc2c(F)cccc2Cl)noc1=O")
"> 10000 nM"
>>> result("COc1ccc(Cc2noc(=O)n2CC2CCC(F)(F)CC2)cc1")
"1000 to 10000 nM"
>>> result("Cc1ncccc1Cc1noc(=O)n1CC1CCC(F)(F)CC1")
"1000 to 10000 nM"
